- Tested on: GS5, a well-characterized TIC line
- EXPERIMENT_NOTES: GS5 proliferation
- Format: cell-based
ASSAY_READOUT: IC50
Don't forget the unit after the number, please.

// lookup IC50 for CCN1/C(=C/C=C/C=C/c2sc3ccccc3[n+]2CC)Sc2ccccc21 [DI, dithiazanine iodide] 79 nM

Data provenance is patent US9731032B2.
